Examples of molecules with documented mass density follow.
details: 303.15 K; 100 kPa; Liquid; Vibrating tube method
Numbers after ± are expanded uncertainties.
Quote the value and follow it with the unit of measurement.

Recorded results for 3 molecules are shown here.
1) CCC(C)O (stereo not given)	798.829 ± 1 kg/m3
2) CCCCO	802.148 ± 1 kg/m3
3) CN1CCC[C@H]1c1cccnc1 [(-)-3-(N-methylpyrrolidino)pyridine]	1002.1 ± 1 kg/m3

# input Answer with the recorded mass density for the molecule listed here: OCCCO
# output 1046.77 ± 1.3 kg/m3

# input Answer with the recorded mass density for the molecule listed here: CC(O)CO (stereo not given)
# output 1028.91 ± 1 kg/m3
